The compounds listed here are annotated with their Mono.
Species: Rattus norvegicus
Test: Open TG-GATES - Regimen: Single
Format: toxicity, organism-based, Sprague-Dawley
Design: regimen Single, gender Male, age 6 weeks
Details: in vivo, po, 300 mg/kg, 6 h, tissue Blood, route gavage, dose level Middle
Write down the numeric answer in % and omit the unit.

Worked examples follow.
compound | result
O=C(O)c1cn(C2CC2)c2cc(N3CCNCC3)c(F)cc2c1=O [CIPROFLOXACIN] | 8
O=C(O)c1cc(/N=N/c2ccc(S(=O)(=O)Nc3ccccn3)cc2)ccc1O [SULFASALAZINE] | 3
C[C@H](CS)C(=O)N1CCC[C@H]1C(=O)O [CAPTOPRIL] | 6.6
Clc1ccccc1CN1CCc2sccc2C1 [TICLOPIDINE] | 2.4

// field: Mono; key: CCc1cc(C(N)=S)ccn1 [ETHIONAMIDE] ; value = 6.4

====

Organism: Rattus norvegicus
Test: Open TG-GATES - Regimen: Daily Repeat
Assay type: toxicity, organism-based, Sprague-Dawley
Set-up: regimen Daily Repeat, gender Male, age 6 weeks
Conditions: in vivo, po, 0 mg/kg, […], tissue Kidney, route gavage, dose level Control, time 7 day
quantity.kind: KIDNEY_R (g)
The response must be a number in g with no trailing unit.

// solved cases for KIDNEY_R follow
compound | quantity.kind | result
CN(C)CCC=C1c2ccccc2CCc2ccccc21 | KIDNEY_R | 1
CC(=O)Oc1ccccc1C(=O)O | KIDNEY_R | 1.2
CO[C@H]1/C=C/O[C@@]2(C)Oc3c(C)c(O)c4c(O)c(c(/C=N/N5CCN(C)CC5)c(O)c4c3C2=O)NC(=O)/C(C)=C\C=C\[C@H](C)[C@H](O)[C@@H](C)[C@@H](O)[C@@H](C)[C@H](OC(C)=O)[C@@H]1C | KIDNEY_R | 1.1
C[C@H](CS)C(=O)N1CCC[C@H]1C(=O)O | KIDNEY_R | 1.1
O=C(O)c1cn(C2CC2)c2cc(N3CCNCC3)c(F)cc2c1=O | KIDNEY_R | 1.1
Cn1c(=O)c2[nH]cnc2n(C)c1=O.O | KIDNEY_R | 1.3
COc1ccc(Cc2nccc3cc(OC)c(OC)cc23)cc1OC | KIDNEY_R | 1.1
COc1ccc2c(c1)c(CC(=O)O)c(C)n2C(=O)c1ccc(Cl)cc1 | KIDNEY_R | 1.2

Noted for NC(=O)N/N=C/c1ccc([N+](=O)[O-])o1 : its KIDNEY_R reads 1.1

NC(=O)N1c2ccccc2C=Cc2ccccc21 [CARBAMAZEPINE] yielded KIDNEY_R of 1.1

Per the records, this compound ( CSc1ccc2c(c1)N(CCC1CCCCN1C)c1ccccc1S2 (centres undefined) ) has KIDNEY_R equal to 1.2

Record Clc1ccccc1CN1CCc2sccc2C1 . Reported KIDNEY_R: 1

Noted for O=C(O)c1cc(/N=N/c2ccc(S(=O)(=O)Nc3ccccn3)cc2)ccc1O : its KIDNEY_R reads 1.1

// recorded KIDNEY_R for CCc1cc(C(N)=S)ccn1 [ETHIONAMIDE] : 1.3

====

Species: Rattus norvegicus
Assay: Open TG-GATES - Regimen: Daily Repeat
Assay type: toxicity, organism-based, Sprague-Dawley
Set-up: regimen Daily Repeat, gender Male, age 6 weeks
Conditions: in vivo, po, 0 mg/kg, […], tissue Blood, route gavage, dose level Control, time 28 day
quantity.kind: PT (s)
Write it as a number; the unit s goes unstated.

Example compounds with recorded PT:
compound | PT [s]
COc1ccc(Cc2nccc3cc(OC)c(OC)cc23)cc1OC | 16
CN(C)CCC=C1c2ccccc2CCc2ccccc21 | 16.2
Clc1ccccc1CN1CCc2sccc2C1 | 11.5

Please fill in: PT reported for C[C@H](CS)C(=O)N1CCC[C@H]1C(=O)O = 11.9

Note to self: PT recorded for Cn1c(=O)c2[nH]cnc2n(C)c1=O.O was 16.2

Briefly, PT measured for CC(=O)Oc1ccccc1C(=O)O : 12.6

Looking up COc1ccc2c(c1)c(CC(=O)O)c(C)n2C(=O)c1ccc(Cl)cc1 , I see its PT listed as 11.8

Lab note: measured PT of O=C(O)c1cn(C2CC2)c2cc(N3CCNCC3)c(F)cc2c1=O was 11.3

Reported PT for CCc1cc(C(N)=S)ccn1 [ETHIONAMIDE] was 11.9

# PT (compound: CSc1ccc2c(c1)N(CCC1CCCCN1C)c1ccccc1S2 (stereo not drawn) ) is 11.8

Notebook: NC(=O)N1c2ccccc2C=Cc2ccccc21 [CARBAMAZEPINE] , PT read as 12.2

The recorded PT for entry NC(=O)N/N=C/c1ccc([N+](=O)[O-])o1 equals 14.9

response.value for O=C(O)c1cc(/N=N/c2ccc(S(=O)(=O)Nc3ccccn3)cc2)ccc1O (field: PT) = 12.5

Source listed as ChEMBL document CHEMBL3885861.
